Recorded values, source PubChem BioAssay AID1918998.

# Test system: 521955-158-R2-J5-PDC complex spheroid growth
# ASSAY PROTOCOL: Anticancer human tumor 521955-158-R2-J5-PDC patient-derived pancreatic carcinoma cell line growth inhibition [AhR]
# MEASUREMENT CONTEXT: second compound 10 µM; first compound 0.1 µM; active compounds read low
MEASURE NAME: viability, T/C (%)
Give bare numbers, in %.

Please review the following examples before continuing.
Cn1ncnc1C1c2n[nH]c(=O)c3cc(F)cc(c23)NC1c1ccc(F)cc1 (stereo not given) + Cc1ccccc1N=Nc1ccc(NC(=O)c2ccnn2C)c(C)c1	141
COc1cc(Nc2ncc3c(n2)-c2ccc(Cl)cc2C(c2c(F)cccc2OC)=NC3)ccc1C(=O)O + Cc1ccccc1N=Nc1ccc(NC(=O)c2ccnn2C)c(C)c1	96.1
COc1cccc2c1C(=O)c1c(O)c3c(c(O)c1C2=O)CC(O)(C(=O)CO)CC3OC1CC(N)C(O)C(C)O1 (stereo not given) + Cc1ccccc1N=Nc1ccc(NC(=O)c2ccnn2C)c(C)c1	63

List viability, T/C for every entry below, keeping the order given.
1. COc1ccc([C@@H](O)c2cc(-c3ncnc4cc(N5CCOCC5)ccc34)c(F)cc2Cl)nn1 + Cc1cncc(-c2nc(NCCc3c[nH]c4ccccc34)c3ncn(C(C)C)c3n2)c1
2. CC(C)c1c(-c2ccccc2)nc2c(C#N)c[nH]n2c1=O + CC(CO)NC(=O)c1cc(-c2ccc(Cl)cc2)nn(-c2cnn(C)c2)c1=O
3. CC1(C)CCC(CN2CCN(c3ccc(C(=O)NS(=O)(=O)c4ccc(NCC5CCOCC5)c([N+](=O)[O-])c4)c(Oc4cnc5[nH]ccc5c4)c3)CC2)=C(c2ccc(Cl)cc2)C1 + Cc1ccccc1N=Nc1ccc(NC(=O)c2ccnn2C)c(C)c1
4. CC(C)c1c(-c2ccccc2)nc2c(C#N)c[nH]n2c1=O + Cc1cncc(-c2nc(NCCc3c[nH]c4ccccc34)c3ncn(C(C)C)c3n2)c1
5. O=C(c1cc(Cc2n[nH]c(=O)c3ccccc23)ccc1F)N1CCN(C(=O)C2CC2)CC1 + Cc1cncc(-c2nc(NCCc3c[nH]c4ccccc34)c3ncn(C(C)C)c3n2)c1
6. COc1cc(C2c3cc4c(cc3C(OC3OC5COC(C)OC5C(O)C3O)C3COC(=O)C23)OCO4)cc(OC)c1O (stereo not given) + Cc1cncc(-c2nc(NCCc3c[nH]c4ccccc34)c3ncn(C(C)C)c3n2)c1
7. CC[C@@]1(O)C(=O)OCc2c1cc1n(c2=O)Cc2cc3c(CN(C)C)c(O)ccc3nc2-1 + Cc1cncc(-c2nc(NCCc3c[nH]c4ccccc34)c3ncn(C(C)C)c3n2)c1

Given back:
1: 131; 2: 81.2; 3: 162; 4: 147; 5: 156; 6: 126; 7: 38.5

List viability, T/C for every entry below, keeping the order given.
1. O=C(c1cc(Cc2n[nH]c(=O)c3ccccc23)ccc1F)N1CCN(C(=O)C2CC2)CC1 + Cc1ccccc1N=Nc1ccc(NC(=O)c2ccnn2C)c(C)c1
2. CC(C)c1c(-c2ccccc2)nc2c(C#N)c[nH]n2c1=O + Cc1ccccc1N=Nc1ccc(NC(=O)c2ccnn2C)c(C)c1

Given back:
155
130

List viability, T/C for every entry below, keeping the order given.
1. NS(=O)(=O)OCC1CC(n2ccc3c(NC4CCc5ccccc54)ncnc32)CC1O (stereo not given) + Cc1cncc(-c2nc(NCCc3c[nH]c4ccccc34)c3ncn(C(C)C)c3n2)c1
2. O=C(c1cc(Cc2n[nH]c(=O)c3ccccc23)ccc1F)N1CCN(C(=O)C2CC2)CC1 + CC(CO)NC(=O)c1cc(-c2ccc(Cl)cc2)nn(-c2cnn(C)c2)c1=O
3. CC1COCCN1c1cc(-c2ccnn2C)c2ccnc(-c3ccn[nH]3)c2n1 (stereo not given) + Cc1ccccc1N=Nc1ccc(NC(=O)c2ccnn2C)c(C)c1
4. NS(=O)(=O)OCC1CC(n2ccc3c(NC4CCc5ccccc54)ncnc32)CC1O (stereo not given) + CC(CO)NC(=O)c1cc(-c2ccc(Cl)cc2)nn(-c2cnn(C)c2)c1=O
5. COc1cccc2c1C(=O)c1c(O)c3c(c(O)c1C2=O)CC(O)(C(=O)CO)CC3OC1CC(N)C(O)C(C)O1 (stereo not given) + CC(CO)NC(=O)c1cc(-c2ccc(Cl)cc2)nn(-c2cnn(C)c2)c1=O

Given back:
1. 40.6
2. 82.6
3. 54.5
4. 66
5. 37

List viability, T/C for every entry below, keeping the order given.
1. COc1cc(Nc2ncc3c(n2)-c2ccc(Cl)cc2C(c2c(F)cccc2OC)=NC3)ccc1C(=O)O + Cc1cncc(-c2nc(NCCc3c[nH]c4ccccc34)c3ncn(C(C)C)c3n2)c1
2. Nc1ccn(C2OC(CO)C(O)C2(F)F)c(=O)n1 (stereo not given) + Cc1ccccc1N=Nc1ccc(NC(=O)c2ccnn2C)c(C)c1
3. Nc1ncn(C2CC(O)C(CO)O2)c(=O)n1 (stereo not given) + CC(CO)NC(=O)c1cc(-c2ccc(Cl)cc2)nn(-c2cnn(C)c2)c1=O

Given back:
1: 88.4; 2: 93.8; 3: 80.2

* * *

I'd be grateful if you could share measured viability, T/C for these entries.
# Test system: 521955-158-R2-J5-PDC complex spheroid growth
# ASSAY PROTOCOL: Anticancer human tumor 521955-158-R2-J5-PDC cell line growth inhibition [AhR];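 further: spheroids mix tumor cells with HUVEC endothelium and human MSC stroma; luminescence taken as viability surrogate after a week of drug exposure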
# MEASUREMENT CONTEXT: second compound 3.16 µM; first compound 0.0316 µM; active compounds read low
One number for each entry, in %.

Please review the following examples before continuing.
CC1(C)CCC(CN2CCN(c3ccc(C(=O)NS(=O)(=O)c4ccc(NCC5CCOCC5)c([N+](=O)[O-])c4)c(Oc4cnc5[nH]ccc5c4)c3)CC2)=C(c2ccc(Cl)cc2)C1 + CC(CO)NC(=O)c1cc(-c2ccc(Cl)cc2)nn(-c2cnn(C)c2)c1=O	123
COc1cc(Nc2ncc3c(n2)-c2ccc(Cl)cc2C(c2c(F)cccc2OC)=NC3)ccc1C(=O)O + Cc1cncc(-c2nc(NCCc3c[nH]c4ccccc34)c3ncn(C(C)C)c3n2)c1	127
Nc1ccccc1NC(=O)c1ccc(CNC(=O)OCc2cccnc2)cc1 + CC(CO)NC(=O)c1cc(-c2ccc(Cl)cc2)nn(-c2cnn(C)c2)c1=O	115

List viability, T/C for every entry below, keeping the order given.
1. Cn1ncnc1C1c2n[nH]c(=O)c3cc(F)cc(c23)NC1c1ccc(F)cc1 (stereo not drawn) + CC(CO)NC(=O)c1cc(-c2ccc(Cl)cc2)nn(-c2cnn(C)c2)c1=O
2. COc1cc(Nc2ncc3c(n2)-c2ccc(Cl)cc2C(c2c(F)cccc2OC)=NC3)ccc1C(=O)O + CC(CO)NC(=O)c1cc(-c2ccc(Cl)cc2)nn(-c2cnn(C)c2)c1=O
3. COc1ccc([C@@H](O)c2cc(-c3ncnc4cc(N5CCOCC5)ccc34)c(F)cc2Cl)nn1 + CC(CO)NC(=O)c1cc(-c2ccc(Cl)cc2)nn(-c2cnn(C)c2)c1=O
4. Nc1ccccc1NC(=O)c1ccc(CNC(=O)OCc2cccnc2)cc1 + Cc1cncc(-c2nc(NCCc3c[nH]c4ccccc34)c3ncn(C(C)C)c3n2)c1
5. CC1COCCN1c1cc(C2(S(C)(=N)=O)CC2)nc(-c2ccnc3[nH]ccc23)n1 (stereo not drawn) + Cc1ccccc1N=Nc1ccc(NC(=O)c2ccnn2C)c(C)c1

Given back:
1. 86.1
2. 84.3
3. 104
4. 138
5. 123

* * *

# Tested on: 521955-158-R2-J5-PDC complex spheroid growth
# ASSAY PROTOCOL: Anticancer human tumor 521955-158-R2-J5-PDC cell line growth inhibition [AhR];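 further: spheroids mix tumor cells with HUVEC endothelium and human MSC stroma; luminescence taken as viability surrogate after a week of drug exposure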
# MEASUREMENT CONTEXT: second compound 3.16 µM; first compound 10 µM; active compounds read low
I'd be grateful if you could share measured viability, T/C for these entries.
Give bare numbers, in %.

COc1cc(C2c3cc4c(cc3C(OC3OC5COC(C)OC5C(O)C3O)C3COC(=O)C23)OCO4)cc(OC)c1O (stereo unspecified) + Cc1cncc(-c2nc(NCCc3c[nH]c4ccccc34)c3ncn(C(C)C)c3n2)c1	26.2
COc1cc(Nc2ncc3c(n2)-c2ccc(Cl)cc2C(c2c(F)cccc2OC)=NC3)ccc1C(=O)O + Cc1cncc(-c2nc(NCCc3c[nH]c4ccccc34)c3ncn(C(C)C)c3n2)c1	76.7
COc1ccc([C@@H](O)c2cc(-c3ncnc4cc(N5CCOCC5)ccc34)c(F)cc2Cl)nn1 + Cc1ccccc1N=Nc1ccc(NC(=O)c2ccnn2C)c(C)c1	54.3
NS(=O)(=O)OCC1CC(n2ccc3c(NC4CCc5ccccc54)ncnc32)CC1O (stereo unspecified) + CC(CO)NC(=O)c1cc(-c2ccc(Cl)cc2)nn(-c2cnn(C)c2)c1=O	14.7

List viability, T/C for every entry below, keeping the order given.
1. O=C(C=Cc1cccc(S(=O)(=O)Nc2ccccc2)c1)NO + Cc1cncc(-c2nc(NCCc3c[nH]c4ccccc34)c3ncn(C(C)C)c3n2)c1
2. CC1COCCN1c1cc(C2(S(C)(=N)=O)CC2)nc(-c2ccnc3[nH]ccc23)n1 (stereo unspecified) + CC(CO)NC(=O)c1cc(-c2ccc(Cl)cc2)nn(-c2cnn(C)c2)c1=O

Given back:
1. 43.5
2. 12.3
